Measured values drawn from ChEMBL document CHEMBL1141150 for this set.

- ASSAY SYSTEM: Thymidylate synthase (Lactobacillus casei)
- Sequence (P00469 whole entry): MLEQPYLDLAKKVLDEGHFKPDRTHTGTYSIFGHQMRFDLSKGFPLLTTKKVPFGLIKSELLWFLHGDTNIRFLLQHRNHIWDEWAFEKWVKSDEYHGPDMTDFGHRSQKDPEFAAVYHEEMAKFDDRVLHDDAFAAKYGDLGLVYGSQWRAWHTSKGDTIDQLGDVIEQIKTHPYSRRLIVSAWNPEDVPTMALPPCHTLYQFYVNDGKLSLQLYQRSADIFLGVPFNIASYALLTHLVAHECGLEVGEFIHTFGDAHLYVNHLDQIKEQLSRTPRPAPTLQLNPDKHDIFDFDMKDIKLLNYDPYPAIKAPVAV
IC50 values for the compounds below.

{"columns": ["SMILES", "IC50"],
 "data": [
  ["Nc1nc(N)c2c(CCCCc3ccc(C(=O)N[C@@H](CCC(=O)O)C(=O)O)cc3)coc2n1", "> 100 µM"],
  ["Nc1nc2[nH]c(CCCc3ccc(C(=O)N[C@@H](CCC(=O)O)C(=O)O)cc3)cc2c(=O)[nH]1", "> 100 µM"],
  ["Nc1nc2[nH]c(CCCCc3ccc(C(=O)N[C@@H](CCC(=O)O)C(=O)O)cc3)cc2c(=O)[nH]1", "> 100 µM"]
]}
